system under test: Testosterone 5α-reductase
assay notes: Testosterone 5α-reductase inhibitory action, nuclear fraction of rat prostates
test conditions: rat prostate nuclear fraction, [4-^14 C]-testosterone, NADPH, pH 7.0, 60 minutes at 37° C.
Counter-ions that a name gives are not always drawn.
recorded metric: IC50 (nM)

# compound, system under test, result number
measured = [
    ("CCc1ccc(CNc2ccc(C(=O)c3cn(CCCC(=O)O)c4ccccc34)cc2OCCCN2CCN(c3ccccc3OC)CC2)cc1 [Example 1, hydrochloride]", "Testosterone 5α-reductase", 0.7),
    ("CCOc1ccccc1N1CCN(CCCOc2cc(C(=O)c3cn(CCCC(=O)O)c4ccccc34)ccc2NCc2ccc(C)cc2)CC1", "Testosterone 5α-reductase", 1),
    ("CCOc1ccccc1N1CCN(CCCOc2cc(C(=O)c3cn(CCCC(=O)O)c4ccccc34)ccc2NCc2ccc(CC)cc2)CC1", "Testosterone 5α-reductase", 0.47),
    ("COc1ccccc1N1CCN(CCCOc2cc(C(=O)c3cn(CCCC(=O)O)c4ccccc34)ccc2NCc2ccc(C)cc2)CC1", "Testosterone 5α-reductase", 0.86),
]
